- Test system: MCF7
- protocolNotes: Cytotoxicity against human MCF7 cells assessed as reduction in cell number after 48 hrs by MTT assay
- Type: functional, cell-based
reportedMetric: Activity

- smilesData: "C[C@H]1[C@@H](OCCOCCOC(=O)NCCCCNC(=O)OCCOCCO[C@H]2O[C@@H]3O[C@@]4(C)CC[C@H]5[C@H](C)CC[C@@H]([C@H]2C)[C@@]35OO4)O[C@@H]2O[C@@]3(C)CC[C@H]4[C@H](C)CC[C@@H]1[C@@]24OO3"
  systemTested: "MCF7"
  result: "Dose-dependent effect"
- smilesData: "C[C@@H]1CC[C@H]2[C@@H](C)C(=O)O[C@@H]3O[C@@]4(C)CC[C@@H]1[C@]32OO4"
  systemTested: "MCF7"
  result: "Dose-dependent effect"
- smilesData: "COC(=O)N(CCCCN(CCCNC(=O)OCCC[C@H]1O[C@@H]2O[C@@]3(C)CC[C@H]4[C@H](C)CC[C@@H]([C@H]1C)[C@@]24OO3)C(=O)OC)CCCNC(=O)OCCC[C@H]1O[C@@H]2O[C@@]3(C)CC[C@H]4[C@H](C)CC[C@@H]([C@H]1C)[C@@]24OO3"
  systemTested: "MCF7"
  result: "Dose-dependent effect"

* * *

- Test system: MCF7
- protocolNotes: Decrease in pleiotrophin protein expression in human MCF7 cell lysate at 10 uM after 24 hrs by Western blot analysis
- Format: functional, cell-based
Activity calls are given as the source filed them. The rule behind the calls is not given here.
reportedMetric: Activity

- compound: "C[C@@H]1CC[C@H]2[C@@H](C)C(=O)N(CCOCCOC(=O)NCCCCNC(=O)OCCOCCN3C(=O)[C@H](C)[C@@H]4CC[C@@H](C)[C@@H]5CC[C@@]6(C)OO[C@]54[C@H]3O6)[C@@H]3O[C@@]4(C)CC[C@@H]1[C@@]23OO4"
  systemTested: "MCF7"
  Activity: "Active"
- compound: "COC(=O)N(CCCCN(CCCNC(=O)OCCC[C@H]1O[C@@H]2O[C@@]3(C)CC[C@H]4[C@H](C)CC[C@@H]([C@H]1C)[C@@]24OO3)C(=O)OC)CCCNC(=O)OCCC[C@H]1O[C@@H]2O[C@@]3(C)CC[C@H]4[C@H](C)CC[C@@H]([C@H]1C)[C@@]24OO3"
  systemTested: "MCF7"
  Activity: "Active"
- compound: "COC(=O)N(CCCCNC(=O)OCCC[C@H]1O[C@@H]2O[C@@]3(C)CC[C@H]4[C@H](C)CC[C@@H]([C@H]1C)[C@@]24OO3)CCCNC(=O)OCCC[C@H]1O[C@@H]2O[C@@]3(C)CC[C@H]4[C@H](C)CC[C@@H]([C@H]1C)[C@@]24OO3"
  systemTested: "MCF7"
  Activity: "Active"
- compound: "C[C@@H]1CC[C@H]2[C@@H](C)C(=O)O[C@@H]3O[C@@]4(C)CC[C@@H]1[C@]32OO4 [ARTEMISININ]"
  systemTested: "MCF7"
  Activity: "Active"

Next compound, Activity to be filled in.
# value of Activity, MCF7, item `C[C@H]1[C@@H](CCCOC(=O)NCCCCNC(=O)OCCC[C@H]2O[C@@H]3O[C@@]4(C)CC[C@H]5[C@H](C)CC[C@@H]([C@H]2C)[C@@]35OO4)O[C@@H]2O[C@@]3(C)CC[C@H]4[C@H](C)CC[C@@H]1[C@@]24OO3` = Active
